Where do these numbers come from? They come from patent US20230233567A1.

As shown below, each of these molecules has a reported pIC50 value.
Target sequence: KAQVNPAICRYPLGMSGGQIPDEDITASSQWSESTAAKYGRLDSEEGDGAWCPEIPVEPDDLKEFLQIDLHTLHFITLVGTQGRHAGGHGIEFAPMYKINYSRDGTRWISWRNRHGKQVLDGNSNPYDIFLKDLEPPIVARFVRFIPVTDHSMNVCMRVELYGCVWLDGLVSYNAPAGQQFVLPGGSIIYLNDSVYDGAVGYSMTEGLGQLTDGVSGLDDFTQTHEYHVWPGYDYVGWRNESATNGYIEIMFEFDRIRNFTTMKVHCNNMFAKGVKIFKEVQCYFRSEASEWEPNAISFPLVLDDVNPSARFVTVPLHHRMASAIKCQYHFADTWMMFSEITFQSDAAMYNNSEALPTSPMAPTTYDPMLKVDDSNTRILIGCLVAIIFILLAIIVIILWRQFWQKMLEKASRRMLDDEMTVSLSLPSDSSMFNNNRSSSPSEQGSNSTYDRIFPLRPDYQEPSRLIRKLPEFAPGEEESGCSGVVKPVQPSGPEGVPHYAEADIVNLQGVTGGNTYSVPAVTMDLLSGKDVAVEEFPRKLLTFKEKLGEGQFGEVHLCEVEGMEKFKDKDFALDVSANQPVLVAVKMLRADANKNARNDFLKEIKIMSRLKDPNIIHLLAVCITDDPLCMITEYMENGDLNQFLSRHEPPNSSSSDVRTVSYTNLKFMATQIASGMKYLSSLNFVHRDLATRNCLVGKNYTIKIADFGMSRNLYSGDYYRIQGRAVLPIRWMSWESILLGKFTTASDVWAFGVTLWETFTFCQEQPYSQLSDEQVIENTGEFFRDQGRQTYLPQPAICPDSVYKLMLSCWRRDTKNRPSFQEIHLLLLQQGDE
pIC50: −log10 of the molar value.
reported endpoint: pIC50

INSERT INTO results (molecule, sign_qualifier, observed_result) VALUES
  ('Cc1ccc2c(Nc3cccc(Cl)c3F)nccc2c1NC(=O)c1csc2c(N)ncnc12', '=', 6.74),
  ('CCCS(=O)(=O)Nc1ccc(F)c(C(=O)c2c[nH]c3ncc(-c4ccc(Cl)cc4)cc23)c1F [Vemurafenib, reference compound]', '<', 5.00);

---

- assay text: Phase I study plasma pharmacokinetics
- Type: in vivo, human
- condition set: human, plasma, po, 200 mg, Day 1 first dose; 200 mg/day QD; n=6; mean
reported endpoint: AUC(0-inf) (µg·h/mL)

INSERT INTO assay_data (sample_smiles, observed_result) VALUES
  ('Cc1ccc2c(Nc3cccc(Cl)c3F)nccc2c1NC(=O)c1csc2c(N)ncnc12', 37.8);

---

- assay text: Phase I study plasma pharmacokinetics
- Assay type: in vivo, human
- condition set: human, plasma, po, 600 mg/day, Day 1 first dose; 600 mg/day QD; n=6; mean; read-out: Vz/F
reported endpoint: Vd/F

INSERT INTO assay_data (compound, reported_endpoint, observed_result) VALUES
  ('Cc1ccc2c(Nc3cccc(Cl)c3F)nccc2c1NC(=O)c1csc2c(N)ncnc12 [Belvarafenib]', 'Vd/F', '798 L');

---

- assay text: Phase I study plasma pharmacokinetics
- Type: in vivo, human
- condition set: human, plasma, oral, 900 mg/day, Multiple administrations Day 22; 900 mg/day BID; n=7; mean
reported endpoint: Cmax (ng/mL)

INSERT INTO assay_data (compound, observed_result) VALUES
  ('Cc1ccc2c(Nc3cccc(Cl)c3F)nccc2c1NC(=O)c1csc2c(N)ncnc12 [Belvarafenib]', 6090);

---

- Tested on: MEK and ERK phosphorylation in A375 (BRAF^V600E) cells
- assay text: Inhibition of MEK and ERK phosphorylation
- Assay type: cell-based
- condition set: Homo sapiens, A-375, read-out: IC50 pERK
Documented IC50 across a set of compounds
reported endpoint: IC50 (nM)

INSERT INTO results (compound, measurement_target, reported_endpoint, sign_qualifier, observed_result) VALUES
  ('Cc1ccc2c(Nc3cccc(Cl)c3F)nccc2c1NC(=O)c1csc2c(N)ncnc12 [Belvarafenib]', 'MEK and ERK phosphorylation in A375 (BRAF^V600E) cells', 'IC50', '<', 1),
  ('CCCS(=O)(=O)Nc1ccc(F)c(C(=O)c2c[nH]c3ncc(-c4ccc(Cl)cc4)cc23)c1F [Vemurafenib, reference compound]', 'MEK and ERK phosphorylation in A375 (BRAF^V600E) cells', 'IC50', '=', 20);

---

- assay text: Phase I study plasma pharmacokinetics
- Type: in vivo, human
- condition set: human, plasma, oral, 200 mg/day, Multiple administrations Day 22; 200 mg/day QD; n=5; mean; read-out: Vz/F
reported endpoint: Vd/F (L)

INSERT INTO measurements (sample_smiles, reported_endpoint, observed_result) VALUES
  ('Cc1ccc2c(Nc3cccc(Cl)c3F)nccc2c1NC(=O)c1csc2c(N)ncnc12', 'Vd/F', 116);

---

- assay text: Phase I study plasma pharmacokinetics
- Assay type: in vivo, human
- condition set: human, plasma, po, 400 mg/day BID, Day 1 first dose; 400 mg/day BID; n=11; mean
reported endpoint: Cmax (ng/mL)

INSERT INTO assay_data (compound, reported_endpoint, observed_result) VALUES
  ('Cc1ccc2c(Nc3cccc(Cl)c3F)nccc2c1NC(=O)c1csc2c(N)ncnc12 [Belvarafenib]', 'Cmax', 900);

---

- assay text: Phase I study plasma pharmacokinetics
- Assay type: in vivo, human
- condition set: human, plasma, po, 100 mg/day QD, Day 1 first dose; 100 mg/day QD; n=3; mean
reported endpoint: AUC(0-inf) (ng·h/mL)

INSERT INTO measurements (sample_smiles, reported_endpoint, observed_result) VALUES
  ('Cc1ccc2c(Nc3cccc(Cl)c3F)nccc2c1NC(=O)c1csc2c(N)ncnc12', 'AUC(0-inf)', 51500);

---

This section presents compounds with their documented IC50 values.
- Tested on: MEK and ERK phosphorylation in HCT116 (KRAS^G13D) cells
- assay text: Inhibition of MEK and ERK phosphorylation, KRAS mutant
- Type: cell-based
- condition set: Homo sapiens, HCT-116; CRC HCT116, KRAS G13D, 2 hr treatment; read-out: IC50 pMEK
reported endpoint: IC50

INSERT INTO results (compound, observed_result) VALUES
  ('CC(C)(C)c1nc(-c2cccc(NS(=O)(=O)c3c(F)cccc3F)c2F)c(-c2ccnc(N)n2)s1', '> 10 µM'),
  ('Cc1ccc2c(Nc3cccc(Cl)c3F)nccc2c1NC(=O)c1csc2c(N)ncnc12', '2.7 µM'),
  ('CCCS(=O)(=O)Nc1ccc(F)c(C(=O)c2c[nH]c3ncc(-c4ccc(Cl)cc4)cc23)c1F [Vemurafenib, reference compound]', '> 10 µM');

---

- assay text: Phase I study plasma pharmacokinetics
- Type: in vivo, human
- condition set: human, plasma, oral, 100 mg/day, Multiple administrations Day 22; 100 mg/day QD; n=3; mean; read-out: Vz/F
reported endpoint: Vd/F (L)

INSERT INTO results (sample_smiles, observed_result) VALUES
  ('Cc1ccc2c(Nc3cccc(Cl)c3F)nccc2c1NC(=O)c1csc2c(N)ncnc12', 62.7);

---

- assay text: Phase I study plasma pharmacokinetics
- Assay type: in vivo, human
- condition set: human, plasma, po, 600 mg/day BID, Day 1 first dose; 600 mg/day BID; n=7; mean
reported endpoint: AUC(0-t) (µg·h/mL)

INSERT INTO results (sample_smiles, unit_tag, observed_result) VALUES
  ('Cc1ccc2c(Nc3cccc(Cl)c3F)nccc2c1NC(=O)c1csc2c(N)ncnc12', 'µg·h/mL', 121);

---

- assay text: Phase I study plasma pharmacokinetics
- Format: in vivo, human
- condition set: human, plasma, po, 600 mg/day, Day 1 first dose; 600 mg/day BID; n=7; mean
reported endpoint: Cmax (ng/mL)

INSERT INTO results (compound, reported_endpoint, observed_result) VALUES
  ('Cc1ccc2c(Nc3cccc(Cl)c3F)nccc2c1NC(=O)c1csc2c(N)ncnc12 [Belvarafenib]', 'Cmax', 1210);

---

- assay text: Phase I study plasma pharmacokinetics
- Format: in vivo, human
- condition set: human, plasma, po, 900 mg/day, Day 1 first dose; 900 mg/day BID; n=8; mean
reported endpoint: Cmax (ng/mL)

INSERT INTO assay_data (sample_smiles, reported_endpoint, observed_result) VALUES
  ('Cc1ccc2c(Nc3cccc(Cl)c3F)nccc2c1NC(=O)c1csc2c(N)ncnc12', 'Cmax', 1590);

---

- assay text: Phase I study plasma pharmacokinetics
- Format: in vivo, human
- condition set: human, plasma, po, 1300 mg/day, Day 1 first dose; 1300 mg/day BID; n=6; mean
reported endpoint: AUC(0-inf) (µg·h/mL)

INSERT INTO measurements (sample_smiles, observed_result) VALUES
  ('Cc1ccc2c(Nc3cccc(Cl)c3F)nccc2c1NC(=O)c1csc2c(N)ncnc12', 225);

---

- assay text: Phase I study plasma pharmacokinetics
- Assay type: in vivo, human
- condition set: human, plasma, oral, 1600 mg/day, Multiple administrations Day 22; 1600 mg/day BID; n=4; median; read-out: Tmax
reported endpoint: Tmax (h)

INSERT INTO assay_data (molecule, observed_result) VALUES
  ('Cc1ccc2c(Nc3cccc(Cl)c3F)nccc2c1NC(=O)c1csc2c(N)ncnc12 [Belvarafenib]', 5.5);
